molecular target: T1, recombinant human IGFBP-3 (human, UniProt P17936 28-291); test: competitive phage ELISA
T1 construct: mature; Secreted recombinant protein
T1 sequence (P17936 28-291): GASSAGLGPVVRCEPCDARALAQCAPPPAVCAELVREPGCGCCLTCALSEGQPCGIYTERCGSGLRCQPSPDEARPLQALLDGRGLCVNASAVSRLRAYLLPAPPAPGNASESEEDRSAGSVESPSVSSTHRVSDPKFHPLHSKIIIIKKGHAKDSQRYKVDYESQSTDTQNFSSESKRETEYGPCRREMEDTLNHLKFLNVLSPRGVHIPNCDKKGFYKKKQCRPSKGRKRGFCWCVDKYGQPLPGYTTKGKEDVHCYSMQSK
pIC50: −log10 of the molar value.
This section presents binders with their documented pIC50 values.
Readout: pIC50

[[record]]
binder = "IGF-I E3A displayed on phage (ligand, not shown: large carriers; small tags and cut ends, On phage; G1S-A70V template) SPATLCGAELVDALQFVCGDRGFYFNKPTGYGSSSRRAPQTGIVDECCFRSCDLRRLEMYCAPLKPAKSV"
reported_value = 8.98

[[record]]
binder = "IGF-I K65A displayed on phage (ligand, On phage; G1S-A70V template; not shown: M13 gene III protein fragment (residues 249-406), the phage display carrier, and its junction to IGF-I) SPETLCGAELVDALQFVCGDRGFYFNKPTGYGSSSRRAPQTGIVDECCFRSCDLRRLEMYCAPLAPAKSV"
reported_value = 9.16

[[record]]
binder = "IGF-I P66A displayed on phage (ligand, On phage; G1S-A70V template; not shown: M13 gene III protein fragment (residues 249-406), the phage display carrier, and its junction to IGF-I) SPETLCGAELVDALQFVCGDRGFYFNKPTGYGSSSRRAPQTGIVDECCFRSCDLRRLEMYCAPLKAAKSV"
reported_value = 9.24

[[record]]
binder = "IGF-I L5A displayed on phage (ligand, not shown: large carriers; small tags and cut ends, On phage; G1S-A70V template) SPETACGAELVDALQFVCGDRGFYFNKPTGYGSSSRRAPQTGIVDECCFRSCDLRRLEMYCAPLKPAKSV"
reported_value = 8.82

[[record]]
binder = "IGF-I V17A displayed on phage (ligand, On phage; G1S-A70V template; not shown: M13 gene III fragment (residues 249-406), the display carrier, and its junction) SPETLCGAELVDALQFACGDRGFYFNKPTGYGSSSRRAPQTGIVDECCFRSCDLRRLEMYCAPLKPAKSV"
reported_value = 8.44

